These data points were gathered from patent US20210188980A1.

- system tested: T1, human PD-1 expressed on cells (human, UniProt Q15116 25-288)
- T1 construct: whole, on cells; also called CHO-K1/huPD-1; CHO-K1-hPD-1 cells
- T1 sequence (Q15116 25-288): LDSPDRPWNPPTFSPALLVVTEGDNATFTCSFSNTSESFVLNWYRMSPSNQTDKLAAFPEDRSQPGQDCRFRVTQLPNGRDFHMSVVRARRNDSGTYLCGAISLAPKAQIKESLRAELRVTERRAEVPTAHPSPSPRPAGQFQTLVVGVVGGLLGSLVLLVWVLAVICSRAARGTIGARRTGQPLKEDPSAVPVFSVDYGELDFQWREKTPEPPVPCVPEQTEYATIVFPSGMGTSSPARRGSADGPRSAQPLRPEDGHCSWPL
- assay: cell RBA FACS, CHO-K1-huPD1; competitor biotin-PD-L2/Fc
- Procedure: All 15 humanized antibodies and the chimeric antibody (mAb709c) were characterized by binding ELISA and cell-based RBA. […] Signals were readout by FACS and curves were fitted by GraphPad software. […] The association and dissociation rate constants, k (M⁻¹ s⁻¹) and koff(s⁻¹), respectively, were determined by making kinetic binding measurements at five different concentrations of human PD-1-His protein at a continuous flow rate of 30 μl/min. […]
pIC50: −log10 of the molar value.
measurement label: pIC50

binder: HumAb709-11 (antibody, human IgG1, kappa, L234A L235A, V domains shown, humanized mAb709) VH: EVQLVESGGGLVQPGGSLRLSCAASGFTFSFYTMSWVRQAPGKGLEWVATISGGGRDTYYPDSVKGRFTISRDNAKNSLYLQMNSLRAEDTAVYYCAGQGGNYLFAYWGQGTLVTVSS VL: DIVMTQSPSSLSASVGDRVTITCKASQDVNTVVAWYQQKPGKAPKVLISWASTRHTGVPSRFTGSGSGTDYTLTISSLQPEDFATYYCQQHYTTPYTFGGGTKVEIKR
recorded value: 9.04
--
binder: HumAb709-15 (antibody, human IgG1, kappa, L234A L235A, V domains shown, humanized mAb709) VH: EVQLVESGGGLVQPGGSLRLSCAASGFTFSFYTMSWVRQAPGKRLEWVATISGGGRDTYYPDSVKGRFTISRDNAKNSLYLQMNSLRAEDTAVYYCAGQGGNYLFAYWGQGTLVTVSS VL: DIVMTQSPSSLSASVGDRVTITCKASQDVNTVVAWYQQKPGKSLKVLISWASTRHTGVPSRFTGSGSGTDYTLTISSLQPEDFATYYCQQHYTTPYTFGGGTKVEIKR
recorded value: 8.92
--
binder: HumAb709-13 (antibody, human IgG1, kappa, L234A L235A, V domains shown, humanized mAb709) VH: EVQLVESGGGLVQPGGSLRLSCAASGFTFSFYTMSWVRQAPGKGLEWVATISGGGRDTYYPDSVKGRFTISRDNAKNSLYLQMNSLRAEDTAVYYCARQGGNYLFAYWGQGTLVTVSS VL: DIVMTQSPSSLSASVGDRVTITCKASQDVNTVVAWYQQKPGKSLKVLISWASTRHTGVPSRFTGSGSGTDYTLTISSLQPEDFATYYCQQHYTTPYTFGGGTKVEIKR
recorded value: 9.11
--
binder: HumAb709-3 (antibody, human IgG1, kappa, L234A L235A, V domains shown, humanized mAb709) VH: EVQLVESGGGLVQPGGSLRLSCAASGFTFSFYTMSWVRQAPGKRLEWVATISGGGRDTYYPDSVKGRFTISRDNAKNSLYLQMNSLRAEDTAVYYCAGQGGNYLFAYWGQGTLVTVSS VL: DIQMTQSPSSLSASVGDRVTITCKASQDVNTVVAWYQQKPGKAPKLLIYWASTRHTGVPSRFSGSGSGTDYTLTISSLQPEDFATYYCQQHYTTPYTFGGGTKVEIKR
recorded value: 8.79
--
binder: HumAb709-7 (antibody, human IgG1, kappa, L234A L235A, V domains shown, humanized mAb709) VH: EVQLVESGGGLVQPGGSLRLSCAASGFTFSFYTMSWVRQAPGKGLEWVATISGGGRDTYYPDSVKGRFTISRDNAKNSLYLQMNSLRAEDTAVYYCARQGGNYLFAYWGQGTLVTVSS VL: DIVMTQSPSSLSASVGDRVTITCKASQDVNTVVAWYQQKPGKAPKVLISWASTRHTGVPSRFSGSGSGTDYTLTISSLQPEDFATYYCQQHYTTPYTFGGGTKVEIKR
recorded value: 9.08
